Provenance of the data: ChEMBL document CHEMBL4321814

# tested system: Cruzipain (Trypanosoma cruzi, UniProt P25779)
# Sequence (P25779 whole entry): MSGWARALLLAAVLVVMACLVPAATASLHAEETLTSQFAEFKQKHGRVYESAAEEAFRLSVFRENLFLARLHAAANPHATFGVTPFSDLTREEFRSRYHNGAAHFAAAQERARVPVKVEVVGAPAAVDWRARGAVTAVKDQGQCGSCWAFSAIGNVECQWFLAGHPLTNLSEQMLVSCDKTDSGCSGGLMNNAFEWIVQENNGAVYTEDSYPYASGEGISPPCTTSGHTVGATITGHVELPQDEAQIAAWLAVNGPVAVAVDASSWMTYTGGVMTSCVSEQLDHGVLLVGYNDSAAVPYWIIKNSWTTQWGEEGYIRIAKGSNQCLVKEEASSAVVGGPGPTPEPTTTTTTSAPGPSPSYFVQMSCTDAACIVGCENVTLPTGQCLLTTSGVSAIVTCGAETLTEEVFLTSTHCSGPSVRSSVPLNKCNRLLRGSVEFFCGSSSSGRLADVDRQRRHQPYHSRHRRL
# procedure text: Inhibition of recombinant Trypanosoma cruzi Cruzain expressed in Pichia pastoris using Z-Phe-Arg-AMC substrate incubated for 30 mins by fluorescence based assay
// classify: if (IC50 < 1 nM) MET else NOT MET

Ask: Does the reported IC50 of CC[C@H](C)[C@@H](C(=O)O[C@@H](CC(C)C)C(=O)N[C@@H](CC(C)C)C(=O)N[C@@H](/C=C/C(=O)N1C(=O)C=C(OC)[C@H]1Cc1ccccc1)Cc1ccccc1)N(C)C stay below 1 nM?
Result: NOT MET

Ask: Confirm or reject: IC50 of CC[C@H](C)[C@@H](C(=O)O[C@@H](CC(C)C)C(=O)N[C@@H](CC(C)C)C(=O)N[C@H](/C=C/C(=O)N1C(=O)C=C(OC)[C@H]1Cc1ccccc1)Cc1ccccc1)N(C)C lies strictly below 1 nM
Result: NOT MET

Ask: API: query returns whether the molecule falls strictly under 1 nM in IC50. Query: CC[C@H](C)[C@@H](C(=O)O[C@@H](CC(C)C)C(=O)N[C@@H](CC(C)C)C(=O)N[C@H](/C=C/C(=O)N1C(=O)C=C(OC)[C@@H]1Cc1ccccc1)Cc1ccccc1)N(C)C
Result: NOT MET

----------
# tested system: UniProt:P07711
# Sequence (P07711 114-333 limits assumed): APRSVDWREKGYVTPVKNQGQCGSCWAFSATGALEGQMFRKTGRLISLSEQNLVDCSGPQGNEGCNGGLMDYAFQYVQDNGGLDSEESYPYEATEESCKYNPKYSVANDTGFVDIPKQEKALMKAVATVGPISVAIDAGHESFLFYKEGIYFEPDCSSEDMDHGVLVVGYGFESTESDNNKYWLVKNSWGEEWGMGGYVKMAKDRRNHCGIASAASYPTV
# procedure text: Inhibition of human cathepsin L assessed as Kinact /Ki ratio using fluorogenic substrate cbz-FR-AMC monitored for 90 to 120 mins by spectrophotometry
property name: log10 of Ratio (log10 of the value in ×10³ /M/s)
log10 Ratio, ×10³ /M/s

Some compounds with recorded log10 of Ratio:
CC[C@H](C)[C@@H](C(=O)O[C@@H](CC(C)C)C(=O)N[C@@H](CC(C)C)C(=O)N[C@@H](/C=C/C(=O)N1C(=O)C=C(OC)[C@H]1Cc1ccccc1)Cc1ccccc1)N(C)C : 1.38
CC[C@H](C)[C@@H](C(=O)O[C@@H](CC(C)C)C(=O)N[C@@H](CC(C)C)C(=O)N[C@@H](C)/C=C/C(=O)N1C(=O)C=C(OC)[C@@H]1C)N(C)C [GALLINAMIDE A] : 2.95
CC[C@H](C)[C@@H](C(=O)O[C@@H](CC(C)C)C(=O)N[C@@H](CC(C)C)C(=O)N[C@H](/C=C/C(=O)N1C(=O)C=C(OC)[C@@H]1Cc1ccccc1)Cc1ccccc1)N(C)C : 2.86
COC1=CC(=O)N(C(=O)/C=C/[C@H](Cc2ccccc2)NC(=O)[C@H](CC(C)C)NC(=O)[C@H](CC(C)C)OC(=O)[C@H](Cc2ccccc2)N(C)C)[C@H]1C : 2.91
CC[C@H](C)[C@@H](C(=O)O[C@@H](CC(C)C)C(=O)N[C@@H](CC(C)C)C(=O)N[C@H](/C=C/C(=O)N1C(=O)C=C(OC)[C@H]1Cc1ccccc1)Cc1ccccc1)N(C)C : 3.01

Field: log10 of Ratio. Fill in for each record below.
1. COC1=CC(=O)N(C(=O)/C=C/[C@H](C)NC(=O)[C@H](CC(C)C)NC(=O)[C@H](CC(C)C)OC(=O)[C@H](C(C)C)N(C)C)[C@H]1C
2. COC1=CC(=O)N(C(=O)/C=C/[C@H](Cc2ccccc2)NC(=O)[C@H](CC(C)C)NC(=O)[C@H](CC(C)C)OC(=O)[C@H](Cc2ccccc2)N(C)C)[C@@H]1Cc1ccccc1
3. COC1=CC(=O)N(C(=O)/C=C/[C@H](Cc2ccccc2)NC(=O)[C@H](CC(C)C)NC(=O)[C@H](CC(C)C)OC(=O)[C@H](Cc2ccccc2)N(C)C)[C@H]1Cc1ccccc1
4. COC1=CC(=O)N(C(=O)/C=C/[C@H](C)NC(=O)[C@H](CC(C)C)NC(=O)[C@H](CC(C)C)OC(=O)[C@H](Cc2ccccc2)N(C)C)[C@H]1Cc1ccccc1
5. CC[C@H](C)[C@@H](C(=O)O[C@@H](CC(C)C)C(=O)N[C@@H](CC(C)C)C(=O)N[C@@H](/C=C/C(=O)N1C(=O)C=C(OC)[C@@H]1Cc1ccccc1)Cc1ccccc1)N(C)C

Result:
1: 2.69; 2: 3.14; 3: 3.03; 4: 3.54; 5: 0.84

// input: 2 compounds below; output: log10 of Ratio for each
1. COC1=CC(=O)N(C(=O)/C=C/[C@H](Cc2ccccc2)NC(=O)[C@H](CC(C)C)NC(=O)[C@H](CC(C)C)OC(=O)[C@H](C(C)C)N(C)C)[C@H]1CC(C)C
2. CC[C@H](C)[C@@H](C(=O)O[C@@H](CC(C)C)C(=O)N[C@@H](CC(C)C)C(=O)N[C@@H](C)/C=C/C(=O)N1C(=O)C=C(OC)[C@@H]1CC(C)C)N(C)C

Result:
1. 3.25
2. 3.40
